The compounds listed here are annotated with their GI50.
System: SK-MEL-28
Test: NCI tumour cell line growth inhibition, 48 h
Active and inactive are the calls of the source. Rule as the data show it: active = GI50 up to about 1.1 µM and inactive = higher.
measured.parameter: GI50

[[record]]
compound = "S=c1[nH]nc(COc2ccc3c(c2)CCCC3)n1/N=C/c1ccc(Cl)cc1"
result = "18.2 µM (inactive)"

[[record]]
compound = "CCOC(=O)c1c(N)sc2c1CC(C)CC2 (stereo not given)"
result = "53.5 µM (inactive)"

[[record]]
compound = "CCC/C(C)=N/NC(=S)SC.CCC/C(C)=N/NC(=S)SC.[Zn+2]"
result = "16 µM (inactive)"

[[record]]
compound = "CN(C)CC1CC/C(=C\\c2ccc(Cl)c(Cl)c2)C1=O (stereo not given)"
result = "39.3 µM (inactive)"

[[record]]
compound = "CC(C)C(OC(=O)c1cc(NC(=S)c2ccccc2)ccc1Cl)C(C)C"
result = "21.8 µM (inactive)"


----------
The compounds listed here are annotated with their GI50.
Test system: TK-10
Experiment: NCI tumour cell line growth inhibition, 48 h
Calls of active or inactive are those of the source. No stated cut-off is given here; in the data, active = GI50 up to about 1.1 µM and inactive = higher.
measured.parameter: GI50

[[record]]
compound = "Cc1ccc(CCNC(=S)SCC(NC(=O)CCC(N)C(=O)O)C(=O)NCC(=O)O)cc1 (stereo not given)"
measured_parameter = "GI50"
result = "2.84 µM (inactive)"

[[record]]
compound = "C[N+]1(CCCl)CC[N+](C)(CCCl)CC1 (stereo not given)"
measured_parameter = "GI50"
result = "> 100 µM (inactive)"

[[record]]
compound = "CC1(C=O)CCC23COC4(CCC5C6(C)CCC(OC7OCC(OC8OC(CO)C(O)C(OC9OC(CO)C(O)C(O)C9O)C8OC8OCC(O)C(O)C8O)C(O)C7OC7OC(CO)C(O)C(O)C7O)C(C)(C)C6CCC5(C)C4(C)CC2O)C3C1 (stereo not given)"
measured_parameter = "GI50"
result = "1.89 µM (inactive)"

[[record]]
compound = "OC12c3ccccc3C1CCCCC2N1CCCC1 (stereo not given)"
measured_parameter = "GI50"
result = "> 100 µM (inactive)"

[[record]]
compound = "CCOC(=O)c1c(N)sc2c1CC(C)CC2 (stereo not given)"
measured_parameter = "GI50"
result = "45.6 µM (inactive)"


----------
System: SW-620
Assay: NCI tumour cell line growth inhibition, 48 h
The source made the active and inactive calls. Cut-off read from the data, not from the text of the source: active = GI50 up to about 1.1 µM and inactive = higher.
Outcomes: y (active), n (inactive)

[[record]]
compound = "O=C(/C=C/c1ccc(Cl)c(Cl)c1)c1ccc(F)cc1"
experimental_target = "SW-620"
category = "n"

[[record]]
compound = "CC(C)CN1CN(c2ccccc2)C2(CCN(CC(C)(c3ccc(F)cc3)C3OCCO3)CC2)C1=O (configuration not stated)"
experimental_target = "SW-620"
category = "n"

[[record]]
compound = "O=C1c2ccccc2C(=O)N1n1c(Cc2ccccc2)n[nH]c1=O"
experimental_target = "SW-620"
category = "n"

[[record]]
compound = "CC(C)=CC1C[C@H](C2CC=C3C2(C)CCC2[C@@]3(C)C(=O)CC3[C@]2(C)C=CC(=O)[C@]3(C)CO)CO1 (some centres not stated)"
experimental_target = "SW-620"
category = "n"

[[record]]
compound = "COC(=O)c1c/c(=N\\NC(=O)CC(=O)Nc2ccc(C)cc2)c2ccccc2o1"
experimental_target = "SW-620"
category = "n"

[[record]]
compound = "CCOc1cc2c(cc1O)C(N)C[C@@H]1[C@@H]2CC[C@]2(C)[C@@H](O)CC[C@@H]12 (some centres not stated)"
experimental_target = "SW-620"
category = "n"

[[record]]
compound = "CSc1nc(C)c(Br)c(=O)n1C1OC(COC(C)=O)C(OC(C)=O)C(OC(C)=O)C1OC(C)=O (configuration not stated)"
experimental_target = "SW-620"
category = "n"

[[record]]
compound = "CNC(=O)c1ccccc1-[s+]1c2ccccc2c(=O)n1C (configuration not stated)"
experimental_target = "SW-620"
category = "n"

[[record]]
compound = "COc1ncc(C#CC(=O)c2ccccc2OC)c(OC)n1"
experimental_target = "SW-620"
category = "y"

[[record]]
compound = "CN(C)Cc1cc(/C=C/C(=O)c2ccc(Cl)c(Cl)c2)cc(CN(C)C)c1O"
experimental_target = "SW-620"
category = "n"

[[record]]
compound = "CCC/C(C)=N/NC(=S)SC.CCC/C(C)=N/NC(=S)SC.[Zn+2]"
experimental_target = "SW-620"
category = "n"

[[record]]
compound = "O=C(O)CCc1ccc(-c2ccccc2)[nH]1"
experimental_target = "SW-620"
category = "n"

[[record]]
compound = "O=C1c2ccccc2/C(=N\\c2ccc3ccccc3c2)C1(C1=C(c2ccccc2)/C(=N/c2ccc3ccccc3c2)c2ccccc21)c1ccccc1 (configuration not stated)"
experimental_target = "SW-620"
category = "n"

[[record]]
compound = "O=C(NCCC(F)(F)C(F)(F)C(F)(F)C(F)(F)F)NC1OC(CO)C(O)C(O)C1O (configuration not stated)"
experimental_target = "SW-620"
category = "n"

[[record]]
compound = "C/C(=N\\NC(N)=O)C(CN(C)C)C(c1ccccc1)c1c(O)c2ccccc2oc1=O (configuration not stated)"
experimental_target = "SW-620"
category = "n"

[[record]]
compound = "[N-]=[N+]=CC(=O)OC(CCl)CCl"
experimental_target = "SW-620"
category = "n"

[[record]]
compound = "COc1ccc2c(C=O)c3n(c(=O)c2c1OC)CCc1cc2c(cc1-3)OCO2"
experimental_target = "SW-620"
category = "n"

[[record]]
compound = "CCCC(=O)n1[nH]c(=O)n(-c2ccc(Cl)cc2)c1=O"
experimental_target = "SW-620"
category = "n"

[[record]]
compound = "COc1ccc(N2C(=O)C3c4[nH]c5ccc(OC)cc5c4C4CCC(c5ccccc5)CC4C3C2=O)cc1 (configuration not stated)"
experimental_target = "SW-620"
category = "n"

[[record]]
compound = "COCC(=O)OC1CCn2c1nc1c2C(=O)C(C)=C(NC(C)=O)C1=O (configuration not stated)"
experimental_target = "SW-620"
category = "n"

[[record]]
compound = "CCOC(=O)CCc1cn2cc(Br)nc(OC)c2n1"
experimental_target = "SW-620"
category = "n"

[[record]]
compound = "c1ccc(NN=C(c2ccccn2)c2ccccn2)nc1"
experimental_target = "SW-620"
category = "y"

[[record]]
compound = "CCOC(CBr)OC1C(=O)OCC1(C)C (configuration not stated)"
experimental_target = "SW-620"
category = "n"

[[record]]
compound = "COc1ccc2c(CCNS(=O)(=O)c3ccccc3)c(C(C)=O)[nH]c2c1[N+](=O)[O-]"
experimental_target = "SW-620"
category = "n"

[[record]]
compound = "O=CC1CCC=CC1NC(=O)OCc1ccccc1 (configuration not stated)"
experimental_target = "SW-620"
category = "n"

[[record]]
compound = "COc1cc(-c2oc3c(OC)c(O)cc(O)c3c(=O)c2OC)ccc1O"
experimental_target = "SW-620"
category = "n"

[[record]]
compound = "Cn1c2c([N+](=O)[O-])[se]nc2c(=O)n1-c1ccc([N+](=O)[O-])cc1"
experimental_target = "SW-620"
category = "y"

[[record]]
compound = "CCOC(=O)c1cnccc1CC1(C#N)c2ccccc2C=CN1C(=O)c1ccccc1 (configuration not stated)"
experimental_target = "SW-620"
category = "n"

[[record]]
compound = "N#CCN(Cc1ccccc1)[C@@H]1CCC[C@]1(O)C#Cc1ccc2c(c1)OCO2"
experimental_target = "SW-620"
category = "n"

[[record]]
compound = "N=c1oc2ccccc2cc1-c1nc2ccccc2c(=O)[nH]1"
experimental_target = "SW-620"
category = "n"

[[record]]
compound = "Cc1cc(=O)oc2cc(OCc3nc4ccccc4c(=O)n3-c3ccccc3)ccc12"
experimental_target = "SW-620"
category = "n"

[[record]]
compound = "C=C(CO)CC(/C=C(\\C)CC/C=C(\\C)CCl)OC(C)=O (configuration not stated)"
experimental_target = "SW-620"
category = "n"

